These entries and their values trace back to patent US9556168B2.

biological target: human RORgammaT-Ligand Binding Domain (LBD) (Homo sapiens (Human)); assay: RORγ-Ligand Binding Domain TR-FRET assay (co-activator peptide SRC1_2 recruitment); assay type: biochemical
Sequence (P51449 269-508): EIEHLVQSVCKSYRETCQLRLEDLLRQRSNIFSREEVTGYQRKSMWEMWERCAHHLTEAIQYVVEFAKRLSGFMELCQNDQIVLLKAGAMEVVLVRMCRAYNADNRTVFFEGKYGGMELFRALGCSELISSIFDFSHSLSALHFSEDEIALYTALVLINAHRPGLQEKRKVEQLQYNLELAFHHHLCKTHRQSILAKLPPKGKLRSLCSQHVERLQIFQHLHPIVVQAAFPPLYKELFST

lineNotation	IC50
N#Cc1ccc(Cl)cc1Cn1nc(-c2ccc(C(=O)O)cc2F)c2ncccc21	> 10 µM

* * *

target: human RORgammaT-Ligand Binding Domain (LBD) (Homo sapiens (Human)); experiment: RORγ-Ligand Binding Domain TR-FRET assay (co-activator peptide SRC1_2 recruitment); format: biochemical; conditions: HIS-tagged RORγ-LBD 3 nM, biotinylated SRC1 LXXLL peptide 100 nM, incubated overnight at 4° C., 665 nm/615 nm signal quotient
pIC50: −log10 of the molar value.
metric: pIC50

molecule	assaySystem	metric	dataValue
O=C(O)c1ccc(-c2nn(Cc3c(F)ccc(F)c3F)c3cccnc23)c(F)c1 [Example 1N]	human RORgammaT-Ligand Binding Domain (LBD) (Homo sapiens (Human))	pIC50	< 5.00
CC(c1ccccc1C(F)(F)F)n1nc(-c2ccc(C(=O)O)cc2F)c2ncccc21 (stereo not drawn) [Example 1K]	human RORgammaT-Ligand Binding Domain (LBD) (Homo sapiens (Human))	pIC50	< 5.00
O=C(O)c1ccc(-c2nn(Cc3c(F)cccc3F)c3cccnc23)c(F)c1 [Example 1P]	human RORgammaT-Ligand Binding Domain (LBD) (Homo sapiens (Human))	pIC50	< 5.00
